- PROCEDURE DETAILS: BSK_BE3C_SRB: Viability Assessment in the BioMAP Diversity Plus: BE3C Assay (AID 2283028);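 further: measured 24 h after chemical dosing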
- STUDY CONDITIONS: primary human bronchial epithelial cells
The source made the active and inactive calls. How the source made its calls: active means hit-call score of the fitted dose curve at least 0.9, where 1 is the maximum; inactive means score below 0.9.
Possible outcomes: Y = active, N = inactive

[[record]]
molecule = "ClC1=C(Cl)C2(Cl)C3C(Cl)C(Cl)CC3C1(Cl)C2(Cl)Cl (stereo not drawn)"
assigned_class = "N"

[[record]]
molecule = "O=C(O)C(F)(F)OC(F)(F)C(F)(F)OC(F)(F)C(=O)O"
assigned_class = "N"

[[record]]
molecule = "O=P1(N(CCCl)CCCl)NCCCO1 (stereo not drawn)"
assigned_class = "N"

[[record]]
molecule = "ClC(Cl)(Cl)c1ccccc1"
assigned_class = "N"

[[record]]
molecule = "Nc1ccc([N+](=O)[O-])cc1Cl"
assigned_class = "N"

[[record]]
molecule = "CCOP(=S)(OCC)SCS(=O)(=O)CC"
assigned_class = "N"

[[record]]
molecule = "Nc1ccc(Cl)cc1"
assigned_class = "N"

[[record]]
molecule = "CCOP(=S)(OCC)SCSc1ccc(Cl)cc1"
assigned_class = "N"

[[record]]
molecule = "O=C(O)C1C(C(=O)O)C2(Cl)C(Cl)=C(Cl)C1(Cl)C2(Cl)Cl (stereo not drawn)"
assigned_class = "N"

[[record]]
molecule = "CCOC(=O)c1ccccc1C(=O)OCC"
assigned_class = "N"

[[record]]
molecule = "FC(F)(F)C(F)(C(F)(F)F)C(F)(F)C(F)(F)CC1CO1 (stereo not drawn)"
assigned_class = "N"

[[record]]
molecule = "CCOP(=S)(NC(C)C)Oc1ccccc1C(=O)OC(C)C (stereo not drawn)"
assigned_class = "N"

[[record]]
molecule = "CCCCC(CC)COC(=O)c1c(Br)c(Br)c(Br)c(Br)c1C(=O)OCC(CC)CCCC (stereo not drawn)"
assigned_class = "N"

[[record]]
molecule = "OCC(F)(F)OC(F)(F)C(F)(F)OC(F)(F)C(F)(F)OC(F)(F)CO"
assigned_class = "N"

[[record]]
molecule = "CCOP(=S)(S)OCC"
assigned_class = "N"

[[record]]
molecule = "CC(C)(C)c1ccc(O)cc1"
assigned_class = "N"

[[record]]
molecule = "Cc1ccc(O)cc1C"
assigned_class = "N"

[[record]]
molecule = "CCCCC(CC)COP(=O)(Oc1ccccc1)Oc1ccccc1 (stereo not drawn)"
assigned_class = "N"

[[record]]
molecule = "c1cc2c3c(cccc3c1)CC2"
assigned_class = "N"

[[record]]
molecule = "CCOc1ccc(C(C)(C)COCc2cccc(Oc3ccccc3)c2)cc1"
assigned_class = "N"

[[record]]
molecule = "O=C(O)C(F)(F)OC(F)(F)C(F)(F)OC(F)(F)F"
assigned_class = "N"

[[record]]
molecule = "CCCCOCCOP(=O)(OCCOCCCC)OCCOCCCC"
assigned_class = "N"

[[record]]
molecule = "Cc1cccc(N)c1"
assigned_class = "N"

[[record]]
molecule = "COP(=O)(O)OC"
assigned_class = "N"

[[record]]
molecule = "N#Cc1cc([N+](=O)[O-])ccc1N"
assigned_class = "N"

[[record]]
molecule = "CCC1(c2ccccc2)C(=O)N=C(O)NC1=O (stereo not drawn)"
assigned_class = "N"

[[record]]
molecule = "c1ccc2c(c1)sc1ccccc12"
assigned_class = "N"

[[record]]
molecule = "Cc1c([N+](=O)[O-])cc2c(c1[N+](=O)[O-])C(C)(C)CC2(C)C"
assigned_class = "N"

[[record]]
molecule = "c1nc[nH]n1"
assigned_class = "N"

[[record]]
molecule = "OCC(F)(F)OC(F)(F)C(F)(F)OC(F)(F)CO"
assigned_class = "N"

[[record]]
molecule = "ClC(Cl)=C(c1ccc(Cl)cc1)c1ccccc1Cl"
assigned_class = "Y"

[[record]]
molecule = "CCCCN(CCCC)N=O"
assigned_class = "N"

[[record]]
molecule = "O=C(O)C(Cl)Cl"
assigned_class = "N"

[[record]]
molecule = "ClC(Cl)c1ccccc1"
assigned_class = "N"

[[record]]
molecule = "CCN(CC)c1ccccc1"
assigned_class = "N"

[[record]]
molecule = "O=P(Oc1ccccc1)(Oc1ccccc1)Oc1ccccc1"
assigned_class = "N"

[[record]]
molecule = "O=c1ssc(Cl)c1Cl"
assigned_class = "Y"

[[record]]
molecule = "C=CC(=O)OCC(F)(F)C(F)F"
assigned_class = "N"

[[record]]
molecule = "OCC1CO1 (stereo not drawn)"
assigned_class = "N"

[[record]]
molecule = "O=C(O)C=CC(F)(C(F)(F)F)C(F)(F)F"
assigned_class = "N"

[[record]]
molecule = "O=C(O)C(F)(F)C(F)(F)C(=O)O"
assigned_class = "N"

[[record]]
molecule = "Nc1cc2c3c(c1)C(c1ccccc1)=N[C@@H](NC(=O)c1cccnc1)C(=O)N3CC2"
assigned_class = "N"

[[record]]
molecule = "CC(Cl)(Cl)C(=O)O"
assigned_class = "N"

[[record]]
molecule = "Cc1ccc([N+](=O)[O-])cc1C"
assigned_class = "N"

[[record]]
molecule = "CSC(C)(C)C=NO"
assigned_class = "N"

[[record]]
molecule = "CC(C)Nc1ccc(Nc2ccccc2)cc1"
assigned_class = "Y"

[[record]]
molecule = "O=[N+]([O-])c1ccccc1"
assigned_class = "N"

[[record]]
molecule = "CCOS(=O)(=O)OCC"
assigned_class = "N"


Data credit: PubChem BioAssay (EPA / NIEHS)
